Measured PBM binding z-score accompanies every entry in the list below.
tested on: THRa homodimer (NR concentration 90 nM); experiment: PBM binding z-score (relative to random genomic background probes); higher = stronger binding; sequences stand for … in GC…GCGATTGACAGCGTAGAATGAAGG
Lab note: record the figure alone, no unit after it.

As a guide, the following entries are already answered.
CCGACTGGGGCAAAGGTTTCCATACTCAGTACGA = -0.282
CGAAAGAGGGCATGAGTTGATAGCAAATGCCGAT = -0.334
CAGCCTAGGTCAGGGACAGTATAGGAGGAACGTT = 0.952
CAAACTAGGTCACCGGAAGGTCCAAGTCCGCATG = 2.3
TCAGATAGGTAAATGCTAGGTGAAAGTCCGATCT = -0.0517

Q. Identify PBM binding z-score associated with the sequence CCTCGGAGGACAACAGGAGGTCAGAGCTGCCAGA
A. 1.04

Q. State, in one line, measured PBM binding z-score of CTCGAAAGGTCGGTTCAGGTGAGTATACGGATAA
A. 1.1

Q. Give reported PBM binding z-score value for AACTCTAGGTAAAGTTCAGTGAAAGATCGATAGA
A. -0.396

Q. Consider the sequence CGAACTAGGTCATCCAGCACAGTGAATACATTGA and give its recorded PBM binding z-score.
A. 1.13

Q. Indicate its recorded PBM binding z-score; the sequence in question is TCTCGGAGGACACGAGGGTCAGAGCTTTCCAGAG
A. 0.409

Q. Retrieve PBM binding z-score measured for CGAACGAGGGCATGATTTGATAGCAAATGCCGAT and print it.
A. -0.278

Q. Give a short answer stating reported PBM binding z-score for ACAATGAGGTTACCAAAGATCAGGGAAACGCTTG .
A. 1.14

---

test system: RARg homodimer (NR concentration 270 nM); assay: PBM binding z-score (relative to random genomic background probes); higher = stronger binding; sequences stand for … in GC…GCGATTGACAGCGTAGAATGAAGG
measured.attribute: PBM binding z-score
Please give the numeric answer without any surrounding text.

Q. # return recorded PBM binding z-score for entry ATGTGTAGGTTATCGGGTCATTCAGTTTGCGCAT
A. 2.67

Q. Indicate its recorded PBM binding z-score; the sequence in question is CCTCGGAGGACAACAAGAGGTCAGAGCTGCCAGA
A. 3.8

Q. Find the measured PBM binding z-score of CCTGTTAGGTCATGGTCAGCTAATCTACAGTATG and report it.
A. 4.61

Q. Look up and report measured PBM binding z-score for this entry: ATATGTAGGATAAGGGTCATTCAGGTTGGTTCGC
A. 3.42

Q. Given the sequence GCATATAGGTAACACAAGGTGAAAGTCCGATTGT , write its reported PBM binding z-score.
A. 0.784

Q. Read the entry ATACCACGGTGATCGTGAGGTCGTTGATACTAAC and write its reported PBM binding z-score.
A. 0.379

Q. Note PBM binding z-score for the sequence shown: CAAACCAGGTCACCGGAAGGTCAAAGTCCGCATG
A. 7.24

Q. Consider the sequence CCTTACGGGTCACTCCAGGTTATAGCATCGGAGT . State its measured PBM binding z-score.
A. 4.35

---

test system: PPARg:RXRa 270nM:90nM, anti-RXR (NR concentration 270 nM, RXRa partner concentration 90 nM); assay: PBM binding z-score (relative to random genomic background probes); higher = stronger binding; sequences stand for … in GC…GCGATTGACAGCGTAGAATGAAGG
Consider the following partition of reported PBM binding z-score into named classes: bucket A = under 0.5, bucket B = from 0.5 up to 2, bucket C = 2 and over

Answered cases to consult:
TAGCCTAGGCCATTCAGGGGCCAGTATAGAAAGC = bucket A
CCGACTAGGGCAGAAAGGTTACCATACCATCCGG = bucket C
ATCTATAGGTAAAAGTTCAGTGAATCCCGAGGAT = bucket C

Q. The entry to classify is GCGACTGGGGCAAAGCAGCTTACCATAAGGTTGG ; which class holds it?
A. bucket B

Q. # classify by PBM binding z-score band: TCGAGTAGGATAGTCGGGGCATTCAGCCAACATA
A. bucket A

Where do the numbers come from? From the supplement of paper PMC6555819.
